molecular target: MAPK9 (human); assay: KINOMEscan competition binding
endpoint.label: Kd (nM)
# output: bare number, implied unit nM

So for Cc1ccc(NC(=O)c2ccc(NC(=O)/C=C/CN(C)C)cc2)cc1Nc1nccc(-c2cccnc2)n1 , the logged Kd turned out to be 160

* * *

molecular target: STK10 (human) (UniProt O94804); assay: KINOMEscan competition binding; conditions: compound 1.0 µM
Sequence (O94804 whole entry, looked up): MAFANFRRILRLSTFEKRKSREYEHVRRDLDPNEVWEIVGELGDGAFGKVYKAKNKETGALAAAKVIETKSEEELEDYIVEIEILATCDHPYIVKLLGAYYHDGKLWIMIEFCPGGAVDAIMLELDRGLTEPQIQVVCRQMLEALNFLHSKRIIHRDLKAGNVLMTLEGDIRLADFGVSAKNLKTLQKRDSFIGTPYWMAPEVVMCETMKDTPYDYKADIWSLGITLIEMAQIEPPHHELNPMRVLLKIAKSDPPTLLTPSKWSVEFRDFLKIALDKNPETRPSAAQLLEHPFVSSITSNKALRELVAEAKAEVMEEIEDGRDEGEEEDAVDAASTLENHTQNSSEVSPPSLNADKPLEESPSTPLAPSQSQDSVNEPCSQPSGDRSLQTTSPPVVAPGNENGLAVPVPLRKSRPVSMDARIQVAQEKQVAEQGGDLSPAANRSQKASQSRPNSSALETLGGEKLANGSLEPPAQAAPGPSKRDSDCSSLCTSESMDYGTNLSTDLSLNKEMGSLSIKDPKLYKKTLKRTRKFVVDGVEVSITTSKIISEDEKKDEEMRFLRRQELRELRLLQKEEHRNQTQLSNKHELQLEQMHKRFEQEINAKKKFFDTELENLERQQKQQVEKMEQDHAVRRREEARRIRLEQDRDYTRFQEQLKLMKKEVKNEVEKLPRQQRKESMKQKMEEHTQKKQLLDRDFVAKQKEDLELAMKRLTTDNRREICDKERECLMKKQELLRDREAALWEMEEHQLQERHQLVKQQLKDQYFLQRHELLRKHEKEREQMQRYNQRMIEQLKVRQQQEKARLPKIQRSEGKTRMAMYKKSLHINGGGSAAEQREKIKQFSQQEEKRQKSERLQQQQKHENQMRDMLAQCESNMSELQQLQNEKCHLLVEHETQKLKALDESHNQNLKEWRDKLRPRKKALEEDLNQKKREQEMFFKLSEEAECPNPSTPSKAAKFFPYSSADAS
endpoint.label: kinase still bound, per cent of control (%)
# output: bare number, implied unit %

{"structure.as.smiles": "CN(C)C/C=C/C(=O)Nc1cccc(C(=O)Nc2ccc(Nc3nccc(-c4c(-c5ccccc5)nn5ccccc45)n3)cc2)c1", "tgt": "STK10 (human) (UniProt O94804)", "unit.tag": "%", "kinase still bound, per cent of control": 23}
{"structure.as.smiles": "CN(C)C/C=C/C(=O)Nc1cccc(C(=O)Nc2ccc(Nc3nccc(-c4cccnc4)n3)cc2)c1", "tgt": "STK10 (human) (UniProt O94804)", "unit.tag": "%", "kinase still bound, per cent of control": 100}
{"structure.as.smiles": "CN(C)C/C=C/C(=O)Nc1cccc(C(=O)Nc2ccc(Nc3nccc(/C(C#N)=C4\\Nc5ccccc5S4)n3)cc2)c1", "tgt": "STK10 (human) (UniProt O94804)", "unit.tag": "%", "kinase still bound, per cent of control": 86}

Now for the compound whose kinase still bound, per cent of control we want.
So for Cc1cc(NC(=O)c2cccc(NC(=O)/C=C/CN(C)C)c2)ccc1Nc1nccc(-c2cccnc2)n1 , the logged kinase still bound, per cent of control turned out to be 100

* * *

target: UniProt:P17612; assay: KINOMEscan competition binding; conditions: compound 1.0 µM
endpoint.label: kinase still bound, per cent of control (%)
# output: bare number, implied unit %

So for CN(C)C/C=C/C(=O)Nc1cccc(C(=O)Nc2ccc(Nc3nccc(-c4cccnc4)n3)cc2)c1 , the logged kinase still bound, per cent of control turned out to be 83

So for Cc1cc(NC(=O)c2cccc(NC(=O)/C=C/CN(C)C)c2)ccc1Nc1nccc(-c2cccnc2)n1 , the logged kinase still bound, per cent of control turned out to be 100

So for CN(C)C/C=C/C(=O)Nc1cccc(C(=O)Nc2ccc(Nc3nccc(-c4c(-c5ccccc5)nn5ccccc45)n3)cc2)c1 , the logged kinase still bound, per cent of control turned out to be 99

So for CN(C)C/C=C/C(=O)Nc1cccc(C(=O)Nc2ccc(Nc3nccc(/C(C#N)=C4\Nc5ccccc5S4)n3)cc2)c1 , the logged kinase still bound, per cent of control turned out to be 88

* * *

target: DYRK1B (human); experiment: KINOMEscan competition binding; conditions: compound 1.0 µM
endpoint.label: kinase still bound, per cent of control (%)
# output: bare number, implied unit %

As a guide, the following entries are already answered.
{"structure.as.smiles": "CN(C)C/C=C/C(=O)Nc1cccc(C(=O)Nc2ccc(Nc3nccc(-c4cccnc4)n3)cc2)c1", "measured": 52}
{"structure.as.smiles": "CN(C)C/C=C/C(=O)Nc1cccc(C(=O)Nc2ccc(Nc3nccc(/C(C#N)=C4\\Nc5ccccc5S4)n3)cc2)c1", "measured": 66}
{"structure.as.smiles": "CN(C)C/C=C/C(=O)Nc1cccc(C(=O)Nc2ccc(Nc3nccc(-c4c(-c5ccccc5)nn5ccccc45)n3)cc2)c1", "measured": 100}

So for Cc1cc(NC(=O)c2cccc(NC(=O)/C=C/CN(C)C)c2)ccc1Nc1nccc(-c2cccnc2)n1 , the logged kinase still bound, per cent of control turned out to be 100

Source: the kinase profiling compilation of Christmann-Franck et al. (2016)
